molecular target: guinea pig IL-17A (guinea pig); assay: ELISA, coated IL-17A
measured parameter: OD (OD)
Answers are plain numbers, in OD.

Consider 07B11 (VHH, Class 3) VHH: EVQLVESGGGLVQAGGSLRLSCVASGRAFSSYVMGWFRQAPGMEREFVALIRWSDGITGYVDSVKGRFTISRDNAKNTVYLQMNSLKPEDTAVYYCAAAVRPGDYDYWGQGTQVTVSS . Its measured OD is 0.007

Others:
Value of OD reported for the binder 24B08 (VHH, Class 3) VHH: EVQLVESGGGLVQAGGSLRLSCAVSGGTFSTYKMGWFRQAPGKEREIVARISTNGPTAYAEFVKGRFTVSRENTKNTVYLQMNSLNIEDTAVYYCAAGYDSLFAGYDYWGQGTQVTVSS is 0.012
